System: MDA-MB-435
Test: NCI tumour cell line growth inhibition, 48 h
Please go through the items and note down their TGI.

Prompt line: I'd like to know its TGI. The molecule in question is COc1cccc2c(Nc3ccc(S(=O)(=O)Nc4ncccn4)cc3)c3ccc([N+](=O)[O-])cc3nc12
Response line: > 100 µM

Prompt line: I'd like to know its TGI. The molecule in question is COc1cc(O)c2c(=O)c(OC)c(-c3ccc(OC)c(OC)c3)oc2c1.[Co]
Response line: > 100 µM

Prompt line: I'd like to know its TGI. The molecule in question is C[C@]12CCC3c4ccc(O)cc4CCC3C1CC[C@@]2(O)C#Cc1ccc(C#C/C=C\C#Cc2ccccc2N)cc1 (stereo partly drawn)
Response line: > 100 µM

Prompt line: I'd like to know its TGI. The molecule in question is O=c1c2cccnc2[nH]c2ccc3[nH]ncc3c12
Response line: > 10 µM

Prompt line: I'd like to know its TGI. The molecule in question is CCOC(=O)N/N=C(\Cc1ccccc1)OCC
Response line: > 100 µM

Prompt line: I'd like to know its TGI. The molecule in question is O=Cc1cc2c(s1)C(=O)c1sccc1C2=O
Response line: 0.0334 µM

Prompt line: I'd like to know its TGI. The molecule in question is CCC1=C(c2ccc(OC)cc2)CC[C@@]2(CCNC2=O)[C@@H]1C
Response line: > 100 µM

Prompt line: I'd like to know its TGI. The molecule in question is O=C1c2ccccc2CCC1C(O)(C(F)(F)F)C(F)(F)F (stereo not drawn)
Response line: > 100 µM

Prompt line: I'd like to know its TGI. The molecule in question is CC(C)(C)OC(=O)Nc1nnc(S(N)(=O)=O)s1
Response line: > 100 µM

Prompt line: I'd like to know its TGI. The molecule in question is O=C1c2ccc(O)cc2OC(c2cc(O)c(O)c(O)c2)C1O (stereo not drawn)
Response line: 43.2 µM

Prompt line: I'd like to know its TGI. The molecule in question is COc1cc(C2c3[nH]c4ccccc4c3[C@@H](Nc3ccc(F)cc3)[C@H]3COC(=O)N23)cc(OC)c1O (stereo partly drawn)
Response line: > 10 µM

Prompt line: I'd like to know its TGI. The molecule in question is FC(F)(F)c1cccc(Nc2nc3ccccc3nc2Nc2cccc(C(F)(F)F)c2)c1
Response line: 2.88 µM

Prompt line: I'd like to know its TGI. The molecule in question is CCOC(=O)c1cc(NC(=O)N(CCC#N)CCN(C(=O)N[C@@H](Cc2ccccc2)C(=O)N[C@@H](CC(C)C)C(=O)NC)c2ccccc2)ccc1OC
Response line: > 100 µM

Prompt line: I'd like to know its TGI. The molecule in question is COc1ccc(C(=O)/C=C2\C(=O)Nc3ccc(Br)cc32)cc1
Response line: 27.8 µM

Prompt line: I'd like to know its TGI. The molecule in question is Cc1ccc(-c2cc(C(=O)N3N=C(c4ccc(N)cc4)CC3c3ccc(Cl)cc3)c3ccccc3n2)cc1 (stereo not drawn)
Response line: 3.66 µM

Prompt line: I'd like to know its TGI. The molecule in question is COC1CC(C)(N)C(O)C(C)O1 (stereo not drawn)
Response line: > 100 µM

Prompt line: I'd like to know its TGI. The molecule in question is Nc1cc2c(nc3c4ccccc4c(N)cc3[n+]2-c2cccc3ccccc23)c2ccccc12 (tested in a mixture with another compound)
Response line: 3 µM

Prompt line: I'd like to know its TGI. The molecule in question is Cc1c(C(=O)O)n(-c2ccc(Cl)cc2)c2ncnc(N)c12
Response line: > 100 µM
